# Tested on: 695427-040-R-J1-PDC complex spheroid viability
# assay_explanation: Anticancer human tumor 695427-040-R-J1-PDC patient-derived colon adenocarcinoma cell line growth inhibition [RAS]
# protocol_conditions: second compound 1 µM; first compound 0.0949 µM; stronger effect = lower value
readout_kind: viability, T/C (%)
Reply with just the number (in %).

Qu. # assay system 695427-040-R-J1-PDC complex spheroid viability: give viability, T/C of CCc1c2c(nc3ccc(O)cc13)-c1cc3c(c(=O)n1C2)COC(=O)[C@]3(O)CC + C#Cc1c(F)ccc2cc(O)cc(-c3ncc4c(N5CC6CCC(C5)N6)nc(OCC56CCCN5CC(F)C6)nc4c3F)c12
Ans. 45.8

Qu. # assay system 695427-040-R-J1-PDC complex spheroid viability: give viability, T/C of CC1(C)CCC(Nc2ncc(C(F)(F)F)c(-c3c[nH]c4c(P(C)(C)=O)c(C#N)ccc34)n2)CN1 (centres undefined) + C#Cc1c(F)ccc2cc(O)cc(-c3ncc4c(N5CC6CCC(C5)N6)nc(OCC56CCCN5CC(F)C6)nc4c3F)c12
Ans. 67.7

Qu. # assay system 695427-040-R-J1-PDC complex spheroid viability: give viability, T/C of CCc1c2c(nc3ccc(O)cc13)-c1cc3c(c(=O)n1C2)COC(=O)[C@]3(O)CC + C=CC(=O)N1CCN(c2nc(OCC3CCCN3C)nc3c(F)c(-c4nc(N)cc(C)c4C(F)(F)F)c(Cl)cc23)C(C)C1
Ans. 62.4

Qu. # assay system 695427-040-R-J1-PDC complex spheroid viability: give viability, T/C of CC1(C)CCC(Nc2ncc(C(F)(F)F)c(-c3c[nH]c4c(P(C)(C)=O)c(C#N)ccc34)n2)CN1 (centres undefined) + C=CC(=O)N1CCN(c2nc(OCC3CCCN3C)nc3c(F)c(-c4nc(N)cc(C)c4C(F)(F)F)c(Cl)cc23)C(C)C1
Ans. 88.9

---

# Tested on: 695427-040-R-J1-PDC complex spheroid viability
# assay_explanation: Anticancer human tumor 695427-040-R-J1-PDC cell line growth inhibition [RAS];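 also: viability read after seven days of drug exposure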
# protocol_conditions: curve of first compound; second compound 0.3 µM
readout_kind: pIC50
The quantity pIC50 is defined as the negative base-10 logarithm of the molar concentration.

Qu. In one line, give reported pIC50 of the entry NC1c2ccccc2OC12CCN(c1cnc3c(N4CCCc5ncccc54)n[nH]c3n1)CC2 (stereo not drawn) + CCn1c(-c2cccnc2C(C)OC)c2c3cc(ccc31)N1CCOC(CC(NC(=O)C(C(C)C)N(C)C(=O)C3(F)CCN(C(=O)C#CC(C)(C)N(C)C)CC3)C(=O)N3CCCC(N3)C(=O)OCC(C)(C)C2)C1 .
Ans. 6.18

Qu. In one line, give reported pIC50 of the entry CCc1c2c(nc3ccc(O)cc13)-c1cc3c(c(=O)n1C2)COC(=O)[C@]3(O)CC + CCn1c(-c2cccnc2C(C)OC)c2c3cc(ccc31)N1CCOC(CC(NC(=O)C(C(C)C)N(C)C(=O)C3(F)CCN(C(=O)C#CC(C)(C)N(C)C)CC3)C(=O)N3CCCC(N3)C(=O)OCC(C)(C)C2)C1 .
Ans. 7.02

Qu. In one line, give reported pIC50 of the entry O=C(c1ccc(F)c(F)c1Nc1ccc(I)cc1F)N1CC(O)([C@@H]2CCCCN2)C1 + CCn1c(-c2cccnc2C(C)OC)c2c3cc(ccc31)N1CCOC(CC(NC(=O)C(C(C)C)N(C)C(=O)C3(F)CCN(C(=O)C#CC(C)(C)N(C)C)CC3)C(=O)N3CCCC(N3)C(=O)OCC(C)(C)C2)C1 .
Ans. 7.45

Qu. In one line, give reported pIC50 of the entry CC(C)n1nc(-c2ccc3oc(N)nc3c2)c2c(N)ncnc21 + CCn1c(-c2cccnc2C(C)OC)c2c3cc(ccc31)N1CCOC(CC(NC(=O)C(C(C)C)N(C)C(=O)C3(F)CCN(C(=O)C#CC(C)(C)N(C)C)CC3)C(=O)N3CCCC(N3)C(=O)OCC(C)(C)C2)C1 .
Ans. 7.05

Qu. In one line, give reported pIC50 of the entry CC1(O)CCCC1n1c(=O)c(C(F)F)cc2cnc(NC3CCN(S(C)(=O)=O)CC3)nc21 (stereo not drawn) + CCn1c(-c2cccnc2C(C)OC)c2c3cc(ccc31)N1CCOC(CC(NC(=O)C(C(C)C)N(C)C(=O)C3(F)CCN(C(=O)C#CC(C)(C)N(C)C)CC3)C(=O)N3CCCC(N3)C(=O)OCC(C)(C)C2)C1 .
Ans. 5.00
